Where do the numbers come from? From patent US20140045883A1.

# Tested on: MDA-MB-231 cell line
# assay.method.text: Cell growth assay (WST1)
# Format: cell-based
# assay.context: MDA-MB-231, 72 hours; read-out: IG50 (cell growth)
pIC50: −log10 of the molar value.
measurement.type: pIC50

Entry under test: c1ccc(-c2oc3ncnc(NC[C@@H]4CCCO4)c3c2-c2ccccc2)cc1 . Its pIC50 was ~4.80
